Species on record: Homo sapiens
test-method-notes: Binding affinity to Hemoglobin in normal human whole blood assessed as increase in Hb affinity for oxygen incubated for 1.5 hrs by oxygen equilibrium curve study
Format: tissue-based
The source made the active and inactive calls. No cut-off for these calls is given here.
property: Activity

Example entries and their recorded answers appear below.
* COC(=O)c1ccc(COc2ccc(OC)cc2C=O)cn1 | Dose-dependent effect
* COC(=O)c1cccnc1COc1ccc(OC)cc1C=O | Dose-dependent effect
* COC(=O)c1ncccc1COc1ccc(OC)cc1C=O | inactive
* COC(=O)c1cncc(COc2ccc(OC)cc2C=O)c1 | Dose-dependent effect
* COC(=O)c1ccc(COc2ccc(OC)cc2C=O)nc1 | inactive

Kindly note the recorded Activity for COC(=O)c1ccc(COc2cccc(O)c2C=O)cn1 , which is Dose-dependent effect

Kindly note the recorded Activity for COC(=O)c1ccc(COc2cccc(O)c2C=O)nc1 , which is inactive

These measurements were taken from ChEMBL document CHEMBL4673298.
